Provide the recorded hemolysis at 1 h, 100 µM for the entries that follow.
assay: Hemolytic activity in sheep erythrocytes assessed as hemolysis at 100 uM incubated for 1 hr under shaking condition by UV-spectrophotometry; type: ADME, cell-based, Ovis aries, Erythrocyte; conditions: read-out: Activity

I have this compound here, O=C(NCc1c[nH]c2ccccc12)c1cc(Br)c(Br)[nH]1 , and I need its recorded hemolysis at 1 h, 100 µM.
< 1%

Now for a further compound.
Could you tell me which hemolysis at 1 h, 100 µM is on file for CCCCn1cc(CCNC(=O)c2cc(Br)c(Br)[nH]2)c2ccccc21 ?
< 1%

---

tested on: Escherichia coli; test: Potentiation of colistin-induced antimicrobial activity against Escherichia coli ATCC 25922 assessed as fold reduction in colistin MIC at 60 uM after 18 hrs by broth microdilution assay; format: functional
Can you tell me fold change (FC) for the items I'm about to list?
Answers are plain numbers.

Some entries whose results are on file:
What is its fold change (FC) for Escherichia coli? Entry: O=C(NCc1ccc2cc[nH]c2c1)c1cc(Br)c(Br)[nH]1
2

Item: O=C(NCCc1c[nH]c2cc(F)ccc12)c1cc(Br)c(Br)[nH]1 Test system: Escherichia coli Read-out: fold change (FC) Value: ?
2

# query: fold change (FC) | item O=C(NCc1c[nH]c2ccccc12)c1cc(Br)c(Br)[nH]1 | system: Escherichia coli
4

I'm curious: which fold change (FC) was measured for O=C(NCCc1c[nH]c2ccccc12)c1cc(Br)c(Br)[nH]1 tested on Escherichia coli?
4

Can you look up fold change (FC) on Escherichia coli for O=C(NCCc1c[nH]c2ccccc12)c1cccc(Br)n1 ?
2

Value wanted: fold change (FC) (Escherichia coli) of entry O=C(NCCCc1c[nH]c2ccccc12)c1cc(Br)c(Br)[nH]1
2

Dear reader, for each entry below, please note its fold change (FC).
1. Cc1cccc2c(CCNC(=O)c3cc(Br)c(Br)[nH]3)c[nH]c12
2. O=C(NCc1cc2ccccc2[nH]1)c1cc(Br)c(Br)[nH]1
3. O=C(NCCc1c[nH]c2ccccc12)c1cc(I)c(I)[nH]1
4. O=C(NCCc1c[nH]c2ccccc12)c1cc(I)c[nH]1

1. 2
2. 2
3. 2
4. 2

Origin of the recorded values: ChEMBL document CHEMBL4392827
